binders and their reported binding affinity fold change relative to RBD WT
# tested.target: N501Y
A number alone suffices; assume fold.

As a guide, the following entries are already answered.
- binder: "Nb36 (VHH) VHH: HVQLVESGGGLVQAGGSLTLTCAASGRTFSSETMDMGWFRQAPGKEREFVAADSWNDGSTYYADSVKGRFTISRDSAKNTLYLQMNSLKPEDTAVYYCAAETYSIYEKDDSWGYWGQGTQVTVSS"
  result.number: 1.35
- binder: "Nb95 (VHH) VHH: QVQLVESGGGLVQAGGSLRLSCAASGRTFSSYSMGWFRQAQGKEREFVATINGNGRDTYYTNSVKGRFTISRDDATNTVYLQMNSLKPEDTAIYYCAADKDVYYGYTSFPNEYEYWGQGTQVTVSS"
  result.number: 1.37
- binder: "Nb34 (VHH) VHH: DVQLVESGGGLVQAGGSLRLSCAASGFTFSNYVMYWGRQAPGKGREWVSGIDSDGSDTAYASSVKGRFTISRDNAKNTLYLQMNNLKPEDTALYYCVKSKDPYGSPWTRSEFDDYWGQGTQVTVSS"
  result.number: -5.79

Looking up Nb105 (VHH) VHH: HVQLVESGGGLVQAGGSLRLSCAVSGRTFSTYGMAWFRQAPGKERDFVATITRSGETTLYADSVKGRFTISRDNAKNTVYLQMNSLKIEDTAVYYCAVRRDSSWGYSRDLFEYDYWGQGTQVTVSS , I see its binding affinity fold change relative to RBD WT listed as -2.69
